The measured values listed here are drawn from paper PMC6585632.

experiment: Effect of a high-fat meal on single-dose pharmacokinetics; format: in vivo, human; conditions: human, plasma, oral, 40 mg, tmax, median, Part 1, single dose 40 mg, cycle 1 day 1 fed (high-fat meal), n 3

>  <compound>
CNCc1ccc(-c2[nH]c3cc(F)cc4c3c2CCNC4=O)cc1 [rucaparib]

>  <Tmax>
2.55 h

$$$$

====

experiment: Steady-state pharmacokinetics in food effect cohorts; format: in vivo, human; details: human, plasma, oral, 300 mg, Cmax, median, Part 1 food effect cohort, 300 mg QD, cycle 1 day 15 steady state, n 5

>  <compound>
CNCc1ccc(-c2[nH]c3cc(F)cc4c3c2CCNC4=O)cc1 [rucaparib]

>  <Cmax [ng/mL]>
444

$$$$
